tested on: ANGIOTENSIN II VASOPRESSOR RESPONSE; assay: AII Challenge: blockade of angiotensin II vasopressor response in conscious SHR; format: in vivo, rat (Conscious Male Okamoto-Aoki SHR); conditions: SHR n=2; 3 mg/kg i.v.; AII 0.1 mcg/kg IV; 300 min post dose
Measured endpoint: % Inhibition of AII vasopressor response
// unit must come after the numeric part

Specify % Inhibition of AII vasopressor response for CCCCc1nc2ccc(C(O)C3CCCN(C)C3=O)cc2c(=O)n1Cc1ccc(-c2ccccc2-c2nn[nH]n2)cc1 (single isomer, unassigned; isomer 1) [Example 37] and stop. 0%

Please report the measured % Inhibition of AII vasopressor response for CCCCc1nc2ccc(C(C)(O)C3CCCN(C)C3=O)cc2c(=O)n1Cc1ccc(-c2ccccc2-c2nn[nH]n2)cc1 (single isomer, unassigned; isomer 2) [Example 53] 17%

Using known records, supply % Inhibition of AII vasopressor response for CCCCc1nc2ccc(C(O)C3CCCS3(=O)=O)cc2c(=O)n1Cc1ccc(-c2ccccc2-c2nn[nH]n2)cc1 (single isomer, unassigned; isomer 2) [Example 16] -21%

Give the measured % Inhibition of AII vasopressor response for CCCCc1nc2ccc(C(OC)C3CCCO3)cc2c(=O)n1Cc1ccc(-c2ccccc2-c2nn[nH]n2)cc1 (single isomer, unassigned; isomer 1) [Example 23] 50%

Given the compound CCCCc1nc2ccc(C(O)C3CCN(C)C3=O)cc2c(=O)n1Cc1ccc(-c2ccccc2-c2nn[nH]n2)cc1 (single isomer, unassigned; isomer 2) [Example 33] , write its reported % Inhibition of AII vasopressor response. 38%

Find the measured % Inhibition of AII vasopressor response of CCCCc1nc2ccc(C(OC)C3CCCO3)cc2c(=O)n1Cc1ccc(-c2ccccc2-c2nn[nH]n2)cc1 (single isomer, unassigned) [Example 24] and report it. 59%

Give the measured % Inhibition of AII vasopressor response for CCCCc1nc2ccc(C(C)(O)C3CCN(C)C3=O)cc2c(=O)n1Cc1ccc(-c2ccccc2-c2nn[nH]n2)cc1 (single isomer, unassigned; isomer 1) [Example 47] 18%

Give a short answer stating reported % Inhibition of AII vasopressor response for CCCCc1nc2ccc(C(O)C3CCN(C)C3=O)cc2c(=O)n1Cc1ccc(-c2ccccc2-c2nn[nH]n2)cc1 (single isomer, unassigned; isomer 1) [Example 32] . 0%

Please indicate % Inhibition of AII vasopressor response recorded for CCCCc1nc2ccc(C(C)(O)C3CCN(C)C3=O)cc2c(=O)n1Cc1ccc(-c2ccccc2-c2nn[nH]n2)cc1 (single isomer, unassigned; isomer 2) [Example 48] 57%

Respond only with % Inhibition of AII vasopressor response recorded for CCCCc1nc2ccc(C(O)C3CCCS3(=O)=O)cc2c(=O)n1Cc1ccc(-c2ccccc2-c2nn[nH]n2)cc1 (single isomer, unassigned; isomer 1) [Example 15] 45%

====

test system: ANGIOTENSIN II VASOPRESSOR RESPONSE; assay: AII Challenge: blockade of angiotensin II vasopressor response in conscious SHR; assay type: in vivo, rat (Conscious Male Okamoto-Aoki SHR); settings: SHR n=2; 3 mg/kg p.o.; AII 0.1 mcg/kg IV; 90 min post dose
Measured endpoint: % Inhibition of AII vasopressor response (%)
Please state the figure in %; there is no need to write the unit.

Name the recorded % Inhibition of AII vasopressor response of the compound listed here: CCCCc1nc2ccc(C(OC)C3CCCO3)cc2c(=O)n1Cc1ccc(-c2ccccc2-c2nn[nH]n2)cc1 (single isomer, unassigned; isomer 1) [Example 23] 32

Look up and report measured % Inhibition of AII vasopressor response for this entry: CCCCc1nc2ccc(C(OC)C3CCCN(C)C3=O)cc2c(=O)n1Cc1ccc(-c2ccccc2-c2nn[nH]n2)cc1 (single isomer, unassigned; isomer 2) [Example 43] 56

Further cases:
Return reported % Inhibition of AII vasopressor response. Input compound: CCCCc1nc2ccc(C(O)C3CCCN(C)C3=O)cc2c(=O)n1Cc1ccc(-c2ccccc2-c2nn[nH]n2)cc1 (single isomer, unassigned; isomer 2) [Example 38] 32
